# TARGET DESC: T1, SsPCP, PCP of a thaxtomin cluster from Streptomyces scabiei 87.22
# T1 chain: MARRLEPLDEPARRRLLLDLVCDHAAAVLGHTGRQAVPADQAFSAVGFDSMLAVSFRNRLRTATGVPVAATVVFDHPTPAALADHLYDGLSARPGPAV
Catalogue of kcat values

| PROTEIN | kcat |
| --- | --- |
| Sfp, phosphopantetheinyl transferase from Bacillus subtilis (protein) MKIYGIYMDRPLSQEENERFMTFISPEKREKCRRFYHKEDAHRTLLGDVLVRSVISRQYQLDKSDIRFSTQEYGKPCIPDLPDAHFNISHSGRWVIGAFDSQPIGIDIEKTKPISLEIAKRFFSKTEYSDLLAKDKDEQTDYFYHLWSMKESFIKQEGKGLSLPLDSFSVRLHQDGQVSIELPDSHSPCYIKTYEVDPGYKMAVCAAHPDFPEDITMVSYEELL | 0.278 s⁻¹ |
| APPT, Sfp-like phosphopantetheinyl transferase (PPTase) from Anabaena sp. PCC7120 (protein) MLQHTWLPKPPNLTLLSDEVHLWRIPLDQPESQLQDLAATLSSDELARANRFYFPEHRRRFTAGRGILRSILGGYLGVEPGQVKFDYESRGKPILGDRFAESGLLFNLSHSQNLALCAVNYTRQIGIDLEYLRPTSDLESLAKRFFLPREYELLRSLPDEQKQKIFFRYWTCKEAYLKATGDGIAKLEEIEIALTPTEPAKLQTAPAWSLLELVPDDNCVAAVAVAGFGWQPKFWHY | 0.127 s⁻¹ |

What does the data say about its kcat? Entry: MPPT, Sfp-like phosphopantetheinyl transferase (PPTase) from Microcystis aeruginosa NIES843 (protein) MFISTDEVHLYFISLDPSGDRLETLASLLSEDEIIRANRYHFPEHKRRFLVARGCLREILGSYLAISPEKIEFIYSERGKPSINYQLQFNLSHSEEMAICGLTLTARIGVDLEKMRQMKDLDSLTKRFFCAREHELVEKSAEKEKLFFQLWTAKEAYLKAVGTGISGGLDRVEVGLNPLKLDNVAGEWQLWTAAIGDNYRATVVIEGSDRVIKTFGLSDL
0.118 s⁻¹

Endpoint output: kcat of SPPT, Sfp-like phosphopantetheinyl transferase (PPTase) from Synechocystis sp. PCC6803 (protein) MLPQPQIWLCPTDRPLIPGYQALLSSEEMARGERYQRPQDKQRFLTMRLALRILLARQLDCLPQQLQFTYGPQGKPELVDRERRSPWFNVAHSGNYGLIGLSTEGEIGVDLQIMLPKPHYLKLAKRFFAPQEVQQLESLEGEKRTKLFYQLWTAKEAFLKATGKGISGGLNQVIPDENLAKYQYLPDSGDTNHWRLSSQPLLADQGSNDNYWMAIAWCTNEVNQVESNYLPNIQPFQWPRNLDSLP . Value?
0.0167 s⁻¹
